- System: HCT-15 colon
- experimental.details: NCI tumour cell line growth inhibition, 48 h
compounds and their reported TGI
reported.property: TGI

compound: c1ccc([P+](c2ccccc2)(c2ccccc2)c2ccc([P+](c3ccccc3)(c3ccccc3)c3ccccc3)c3ccccc23)cc1
endpoint.result: > 100 µM
--
compound: O=C(O)CCC[C@]1(O)O[C@@]2(CCCC2=O)[C@]2(O)CCC[C@@]21O
endpoint.result: > 100 µM
--
compound: Cc1cc2nn(C3CCCO3)nc2cc1C (stereo not given)
endpoint.result: > 100 µM
--
compound: CCOC(=O)c1c(SCCCN2CCCCC2)n(-c2ccccc2)c(=S)n(-c2ccccc2)c1=O
endpoint.result: 33.2 µM
--
compound: O=C1C(=C2SC(c3ccccc3)(c3ccccc3)c3ccccc32)C(=O)c2ccccc21
endpoint.result: > 100 µM
--
compound: N#Cc1nc(/C=C/c2nc(C#N)c(N)o2)oc1N
endpoint.result: > 10 µM
--
compound: CCC1(CN(C)C)CC/C(=C\c2ccc(OC)cc2)C1=O (stereo not given)
endpoint.result: > 100 µM
--
compound: C/C(=N\NC(=O)c1ccccc1N)c1ccccc1O
endpoint.result: > 100 µM
--
compound: C/C1=C\CC[C@@]2(C)O[C@@H]2C[C@@H]2[C@H](C/C(C)=C/CC1)OC(=O)C21CC1
endpoint.result: > 100 µM
--
compound: CCN(CC)CCN1CCc2c([nH]c3ccccc23)C1c1cccnc1 (stereo not given)
endpoint.result: > 100 µM

* * *

- Test system: U251 CNS
- experimental.details: NCI tumour cell line growth inhibition, 48 h
reported.property: TGI

compound: C=CCCC1CCCCNC1=S (configuration not stated)
reported.property: TGI
endpoint.result: > 10 µM

compound: COc1cccc(C2c3cc4c(cc3OC(NNc3ccccc3)C2C)OCO4)c1OC (configuration not stated)
reported.property: TGI
endpoint.result: > 100 µM

compound: O=Cc1cn(CCCCCn2cc(C=O)c3ccccc32)c2ccccc12
reported.property: TGI
endpoint.result: > 100 µM

compound: O=c1[nH]c2ccccc2c(O)c1/C=N/C(=S)NCCc1ccccc1
reported.property: TGI
endpoint.result: > 100 µM

compound: CNCCC/C=C1\c2cc3c(cc2-c2c1c1cc(OC)c(OC)cc1c(=O)n2C)OCO3
reported.property: TGI
endpoint.result: 4.03 µM

compound: Cc1cnc(NC2CCOCC2)nc1-n1cnc(C(=O)N[C@H](CN)c2cc(F)cc(Cl)c2)c1
reported.property: TGI
endpoint.result: 22.9 µM

compound: N=C(N)c1ccc(-c2ccc(-c3cccs3)o2)cc1
reported.property: TGI
endpoint.result: 3.37 µM

compound: Nc1nc(CCl)nc(N2CCOCC2)n1
reported.property: TGI
endpoint.result: 53.9 µM

compound: O=C1CCN(CCC(F)(F)C(F)(F)C(F)(F)C(F)(F)C(F)(F)C(F)(F)F)C(=S)N1CCC(F)(F)C(F)(F)C(F)(F)C(F)(F)C(F)(F)C(F)(F)F
reported.property: TGI
endpoint.result: > 100 µM

compound: O=C(O)CCC[C@]1(O)O[C@@]2(CCCC2=O)[C@]2(O)CCC[C@@]21O
reported.property: TGI
endpoint.result: > 100 µM

compound: COc1nc2ncc([C@@H](O)[C@H](O)CO)nc2c(=O)n1C
reported.property: TGI
endpoint.result: > 100 µM

compound: Cc1ccc(-n2c(=S)[nH]c3ccc(Br)cc3c2=O)cc1
reported.property: TGI
endpoint.result: > 100 µM

compound: CCN1C2=C(SC(=S)C1=C1SC(C(=O)OC)=C(C(=O)OC)S1)SC(=Nc1ccc(OC)cc1)C2=O
reported.property: TGI
endpoint.result: 3.27 µM

compound: S=c1nc(COc2ccc(Cl)cc2)[nH][nH]1
reported.property: TGI
endpoint.result: > 100 µM

compound: O=C(O)c1ccccc1NS(=O)(=O)c1ccc([N+](=O)[O-])cc1
reported.property: TGI
endpoint.result: > 100 µM

compound: COc1cc(/C=C\c2cc(/C=C\c3ccc(O)c(OC)c3)n(C(=O)COc3ccccc3)n2)ccc1O
reported.property: TGI
endpoint.result: 5.96 µM

compound: Cc1nn(CN2CCN(C)CC2)c(=S)n1/N=C/c1ccc(-c2ccc(Cl)cc2Cl)o1
reported.property: TGI
endpoint.result: > 100 µM

compound: O=C(C1CC1)N1CC[C@@H](Cc2n[nH]c(=O)n2-c2ccc(-c3ccc4occc4c3)cc2)C1
reported.property: TGI
endpoint.result: > 100 µM

compound: C=CCN=C1N=C(C)C(C(=O)OCC)S1 (configuration not stated)
reported.property: TGI
endpoint.result: > 100 µM

compound: Oc1ccc(Cl)cc1-c1cc(-c2ccc(Cl)cc2)n[nH]1
reported.property: TGI
endpoint.result: 11.3 µM

compound: COc1ccc(CNC(=O)[C@H](Cc2ccc(O)cn2)NC(C)=O)cc1OC
reported.property: TGI
endpoint.result: > 100 µM

compound: C/C(=N\NC(=O)c1ccccc1N)c1ccccc1O
reported.property: TGI
endpoint.result: > 100 µM

compound: O=C1c2ccccc2OCC1/C=N/O (configuration not stated)
reported.property: TGI
endpoint.result: > 100 µM

compound: Cc1ccc2cc3cccc(C(=O)NCCN(C)C)c3nc2c1
reported.property: TGI
endpoint.result: 9.2 µM

compound: N=C(N)CCNC(=O)C1CCC(N)=N1 (configuration not stated)
reported.property: TGI
endpoint.result: > 100 µM

compound: CCCCC(=O)Nc1ccc2cc(C(=O)OC)c(Cl)nc2n1
reported.property: TGI
endpoint.result: > 78 µM

compound: COc1ccc(N2CCOCC2)cc1
reported.property: TGI
endpoint.result: > 100 µM

Data origin: PubChem BioAssay (NCI)
